TARGET_SYSTEM: recombinant human Flag-tagged PARP7 (amino acids 456-657) (Homo sapiens)
Construct: recombinant human Flag-tagged PARP7 (amino acids 456-657)
RUN_DESCRIPTION: PARP7 biochemical DELFIA assay (auto-MARylation)
CONDITION_INFO: DELFIA readout, IC50 class
VALUE_TYPE: IC50

Lab note: measured IC50 of CC(CCOCC(=O)N1CCN(c2ncc(C(F)(F)F)cn2)CC1)n1cc(C(F)(F)F)c2c(=O)[nH]ncc21 (single isomer, unassigned) [Compound 455] was ≤ 100 nM

IC50 for CC(COCC(=O)N(C)C1CCN(c2ncc(C(F)(F)F)cn2)CC1)n1nc(C(F)(F)F)c2c(=O)[nH]ncc21 (single isomer, unassigned) [Compound 460] is ≤ 100 nM

Form field IC50, entry CC(COCCC(=O)N1CCN(c2nc(C#N)co2)CC1)n1nc(C(F)(F)F)c2c(=O)[nH]ncc21 (single isomer, unassigned) [Compound 319] : ≤ 100 nM

* * *

pIC50 reference
TARGET_SYSTEM: recombinant human Flag-tagged PARP7 (amino acids 456-657) (Homo sapiens, UniProt Q7Z3E1)
Construct: recombinant human Flag-tagged PARP7 (amino acids 456-657)
RUN_DESCRIPTION: PARP7 biochemical DELFIA assay (auto-MARylation)
CONDITION_INFO: DELFIA readout, IC50 class
pIC50: −log10 of the molar value.

In plain terms, "N#Cc1ccc(N2CCN(C(=O)c3cccc(Cc4cccc5c4NCNC5=O)c3)CC2)nc1" has a documented pIC50 of 6.00 to 7.00

For reference, reported pIC50 for "O=C(CCOCCn1nc(C(F)(F)F)c2c(=O)[nH]ncc21)N1CCN(c2nnc(C(F)(F)F)[nH]2)CC1" stands at ≥ 7.00

GET /value?item= CNC(=O)c1cnc(N2CCN(C(=O)CCOCC(C)n3nc(C(F)(F)F)c4c(=O)[nH]ncc43)CC2)nc1 (centres unmarked) [Compound 325] &field=pIC50 returns ≥ 7.00

* * *

Listed next: entries and their corresponding pIC50.
TARGET_SYSTEM: recombinant human Flag-tagged PARP7 (amino acids 456-657) (Homo sapiens)
Construct: recombinant human Flag-tagged PARP7 (amino acids 456-657)
RUN_DESCRIPTION: PARP7 biochemical DELFIA assay (auto-MARylation)
CONDITION_INFO: DELFIA readout, IC50 class
pIC50: −log10 of the molar value.

Example cases with answers are listed next.
> print(dat)
                                   compound                             target.system  value.type  measured.result
1  N#Cc1cc(CCOCCC(=O)N2CCN(c3ncc(C(F)(F)F)cn3)CC2)c2cn[nH]c(=O)c2c1 [Compound 112]  recombinant human Flag-tagged PARP7 (amino acids 456-657) (Homo sapiens)       pIC50     6.00 to 7.00
2  CC(CCOCC(=O)N1CCN(c2ccc(C#N)cn2)CC1)n1nc(C(F)(F)F)c2c(=O)[nH]ncc21 (single isomer, unassigned) [Compound 467]  recombinant human Flag-tagged PARP7 (amino acids 456-657) (Homo sapiens)       pIC50           ≥ 7.00
3  O=C(CCOCCn1cc(C(F)(F)F)c2c(=O)[nH]ncc21)N1CCN(c2nc3cc(Cl)ccc3o2)CC1 [Compound 359]  recombinant human Flag-tagged PARP7 (amino acids 456-657) (Homo sapiens)       pIC50           ≥ 7.00
4  CC(COCCC(=O)N1CCN(c2ccc(C(C)(F)F)cn2)CC1)n1cc(C(F)(F)F)c2c(=O)[nH]ncc21 (stereo not shown) [Compound 483]  recombinant human Flag-tagged PARP7 (amino acids 456-657) (Homo sapiens)       pIC50           ≥ 7.00
5  O=C(c1cccc(Cc2cccc3c(=O)[nH]ncc23)c1)N1CCN(c2ncc(C(F)(F)F)cn2)CC1 [Compound 25]  recombinant human Flag-tagged PARP7 (amino acids 456-657) (Homo sapiens)       pIC50           ≥ 7.00

GET /value?item= O=C(CCOCCc1cccc2c(=O)[nH]c(=O)[nH]c12)N1CCN(c2ncc(C(F)(F)F)cn2)CC1 [Compound 45] &field=pIC50 returns ≥ 7.00

Sure, the documented pIC50 for CC(COCCC(=O)N1CCN(c2ncc(C(F)(F)F)cn2)CC1)c1cccc2c(=O)[nH]ncc12 (single isomer, unassigned) [Compound 72] is 5.00 to 6.00

* * *

TARGET_SYSTEM: recombinant human Flag-tagged PARP7 (amino acids 456-657) (Homo sapiens)
Construct: recombinant human Flag-tagged PARP7 (amino acids 456-657)
Sequence (Q7Z3E1 456-657): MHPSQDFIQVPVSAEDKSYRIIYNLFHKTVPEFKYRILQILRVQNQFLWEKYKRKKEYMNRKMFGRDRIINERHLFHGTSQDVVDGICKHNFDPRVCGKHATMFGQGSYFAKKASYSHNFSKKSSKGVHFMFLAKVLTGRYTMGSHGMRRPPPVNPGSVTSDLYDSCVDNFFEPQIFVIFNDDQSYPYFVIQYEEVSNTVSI
RUN_DESCRIPTION: PARP7 biochemical DELFIA assay (auto-MARylation)
CONDITION_INFO: DELFIA readout, IC50 class
pIC50: −log10 of the molar value.
VALUE_TYPE: pIC50

Sample CC1(C)CN(C(=O)CCOCCn2nc(C(F)(F)F)c3c(=O)[nH]ncc32)CCN1c1ccc(C(F)(F)F)cn1 [Compound 173] ; pIC50 observed: ≥ 7.00

Kindly note the recorded pIC50 for O=C(CCOCCn1nc(C(F)(F)F)c2c(=O)[nH]ncc21)N1CCN(c2nc3ccc(Cl)cc3o2)CC1 [Compound 191] , which is ≥ 7.00

Reported pIC50 of CC(COCCC(=O)N1CCN(c2ccc(C#N)cn2)CC1)n1nc(C(F)(F)F)c2c(=O)[nH]ncc21 (single isomer, unassigned) [Compound 270] : ≥ 7.00

Notebook: CC1CN(C(=O)CCOCCn2cc(C(F)(F)F)c3c(=O)[nH]ncc32)CCN1c1ncc(C(F)(F)F)cn1 (stereo not shown) [Compound 373] , pIC50 read as ≥ 7.00

Summary for this compound, CC(COCCC(=O)N1CCN(c2ccc(C3CC3)cn2)CC1)n1nc(C(F)(F)F)c2c(=O)[nH]ncc21 (single isomer, unassigned) [Compound 279] : pIC50 is ≥ 7.00

pIC50 recorded for this compound, CC(COCCC(=O)N1CCN(c2cnc(C(F)F)cn2)CC1)n1nc(C(F)(F)F)c2c(=O)[nH]ncc21 (single isomer, unassigned) [Compound 324] , is ≥ 7.00

Entry [2H]C([2H])(OCCC(=O)N1CCN(c2ncc(C#N)cn2)CC1)C(C)n1nc(C(F)(F)F)c2c(=O)[nH]ncc21 (single isomer, unassigned) [Compound 421] , pIC50 reported as ≥ 7.00

The compound listed as O=C(CCOCCc1c(Cl)ccc2c(=O)[nH]ncc12)N1CCN(c2ncc(C(F)(F)F)cn2)CC1 [Compound 410] shows pIC50 equal to ≥ 7.00

According to the records, this compound CNC(=O)c1ccc(N2CCN(C(=O)CCOCC(C)n3nc(C(F)(F)F)c4c(=O)[nH]ncc43)CC2)nc1 (stereo not shown) [Compound 304] displays pIC50 of 6.00 to 7.00

The compound identified as O=C(CCOCCc1cccc2c(=O)[nH]ncc12)N1CCN(c2ncc(Cl)cn2)CC1 [Compound 100] registered its pIC50 at ≥ 7.00

The compound N#Cc1ccc(OC2CCN(C(=O)CCOCCc3cccc4c(=O)[nH]ncc34)C2)nc1 (stereo not shown) [Compound 116] showed pIC50 equal to 5.00 to 6.00

// O=C(CCOCCc1cccc2c(=O)[nH]ncc12)N1CCN(c2ncc(F)cn2)CC1 [Compound 99] : pIC50 value = ≥ 7.00

Entry CC(COCCC(=O)N1CCN(c2ccc(C3COC3)cn2)CC1)n1nc(C(F)(F)F)c2c(=O)[nH]ncc21 (single isomer, unassigned) [Compound 310] , pIC50 reported as ≥ 7.00

* * *

TARGET_SYSTEM: recombinant human Flag-tagged PARP7 (amino acids 456-657) (Homo sapiens)
Construct: recombinant human Flag-tagged PARP7 (amino acids 456-657)
Sequence (Q7Z3E1 456-657): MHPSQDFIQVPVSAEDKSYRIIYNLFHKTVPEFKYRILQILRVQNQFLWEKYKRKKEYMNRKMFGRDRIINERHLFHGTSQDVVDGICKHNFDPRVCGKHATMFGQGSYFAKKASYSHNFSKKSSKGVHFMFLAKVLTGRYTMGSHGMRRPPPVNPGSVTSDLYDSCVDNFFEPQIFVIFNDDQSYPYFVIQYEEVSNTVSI
RUN_DESCRIPTION: PARP7 biochemical DELFIA assay (auto-MARylation)
CONDITION_INFO: DELFIA readout, IC50 class
Method: A suitable assay may be conducted using 10-30 nM PARP7 (amino acids 456-657), 2 μM biotin-NAD assay solution in 20 mM HEPES (pH 7.5), 100 mM NaCl, 2 mM DTT, 0.1% BSA (w/v), 0.02% Tween (v/v) assay buffer. MARylation may take place for 2-3 h at room temperature and may be detected using a dissociation-enhanced lanthanide fluorescence immunoassay (DELFIA) readout. […] Following incubation for 30 min at room temperature, fluorescence was read on either an Envision or Pherastar FS (Ex337 nm, Em620 nm).
Here the recorded IC50 is given for each entry.

> print(dat)
                                   compound                             target.system  value.type  measured.result
1  CC(CCOCC(=O)N1CCN(c2ncc(Cl)cn2)CC1)n1cc(C(F)(F)F)c2c(=O)[nH]ncc21 (single isomer, unassigned) [Compound 457]  recombinant human Flag-tagged PARP7 (amino acids 456-657) (Homo sapiens)        IC50         ≤ 100 nM

Reported IC50 ( "O=C(CCOCCn1nc(C(F)(F)F)c2c(=O)[nH]ncc21)N1CCN(c2cc(C(F)(F)F)on2)CC1" ) = ≤ 100 nM

Short answer for CC(CCOCC(=O)N1CCN(c2ncc(C(F)(F)F)cn2)CC1)n1cc(C(F)(F)F)c2c(=O)[nH]ncc21 (stereo not shown) [Compound 454] : IC50 was ≤ 100 nM

GET /value?item= "N#Cc1ccc(N2CCCN(C(=O)c3cccc(Cc4cccc5c(=O)[nH]ncc45)c3)CC2)nc1" &field=IC50 returns 100 to 1000 nM

Item: "O=C(CCOCCc1cc(Cl)cc2c(=O)[nH]ncc12)N1CCN(c2ncc(C(F)(F)F)cn2)CC1" | IC50: ≤ 100 nM

Sure, the documented IC50 for "N#Cc1ccc(N2CCN(C(=O)c3cccc(Cc4cccc5c4CCNC5=O)c3)CC2)nc1" is 100 to 1000 nM

Entry under test: "CN(CCOCC(=O)N1CCN(c2ncc(C(F)(F)F)cn2)CC1)c1cccc2c(=O)[nH]ncc12" . Its IC50 was 100 to 1000 nM

src = patent US20240217968A1
